Tested on: 233499-124-R-J3-PDC complex spheroid viability;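 further: spheroids exposed to the drug combinations for seven days; percent viability relative to DMSO vehicle control wells taken as 100%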
Test: Anticancer human tumor 233499-124-R-J3-PDC patient-derived colon adenocarcinoma cell line growth inhibition [CLK]
Details: second compound 0.1 µM; first compound 0.1 µM; active compounds read low
measured_property: viability, T/C

query: Answer with the recorded viability, T/C for the compound listed here: C=C(F)C(=O)N1CCN(c2nc(OCC3CCCN3C)nc3c2CCN(c2cccc4cccc(Cl)c24)C3)CC1CC#N (stereo not given) + CN1CCN(c2cc(C(=O)Nc3cc4cc(-c5cnn(C)c5)ccc4cn3)ccn2)CC1
result: 90.9%

query: Answer with the recorded viability, T/C for the compound listed here: COC1C=CCC(C)C(C)S(=O)(=O)NC(=O)c2ccc3c(c2)N(CC2CCC21)CC1(CCCc2cc(Cl)ccc21)CO3 (stereo not given) + CN1CCN(c2cc(C(=O)Nc3cc4cc(-c5cnn(C)c5)ccc4cn3)ccn2)CC1
result: 98.6%

query: Answer with the recorded viability, T/C for the compound listed here: COc1cccc2c1C(=O)c1c(O)c3c(c(O)c1C2=O)CC(O)(C(=O)CO)CC3OC1CC(N)C(O)C(C)O1 (stereo not given) + CNC(=O)c1ccc(Nc2nc(OC3CCCC3)c3c(-c4ccc5nc(C)oc5c4)c[nH]c3n2)c(OC)c1
result: 71.7%

query: Answer with the recorded viability, T/C for the compound listed here: C#Cc1c(F)ccc2cc(O)cc(-c3ncc4c(N5CC6CCC(C5)N6)nc(OCC56CCCN5CC(F)C6)nc4c3F)c12 (stereo not given) + CN1CCN(c2cc(C(=O)Nc3cc4cc(-c5cnn(C)c5)ccc4cn3)ccn2)CC1
result: 99.8%

query: Answer with the recorded viability, T/C for the compound listed here: CC(=O)O[C@H]1C(=O)[C@@]2(C)[C@H]([C@H](OC(=O)c3ccccc3)[C@]3(O)C[C@H](OC(=O)[C@H](O)[C@@H](NC(=O)c4ccccc4)c4ccccc4)C(C)=C1C3(C)C)[C@]1(OC(C)=O)CO[C@@H]1C[C@@H]2O + CN1CCN(c2cc(C(=O)Nc3cc4cc(-c5cnn(C)c5)ccc4cn3)ccn2)CC1
result: 25.5%

query: Answer with the recorded viability, T/C for the compound listed here: CC1COCCN1c1cc(C2(S(C)(=N)=O)CC2)nc(-c2ccnc3[nH]ccc23)n1 (stereo not given) + CN1CCN(c2cc(C(=O)Nc3cc4cc(-c5cnn(C)c5)ccc4cn3)ccn2)CC1
result: 109%

query: Answer with the recorded viability, T/C for the compound listed here: CCCS(=O)(=O)Nc1ccc(F)c(C(=O)c2c[nH]c3ncc(-c4ccc(Cl)cc4)cc23)c1F + CNC(=O)c1ccc(Nc2nc(OC3CCCC3)c3c(-c4ccc5nc(C)oc5c4)c[nH]c3n2)c(OC)c1
result: 86.8%

query: Answer with the recorded viability, T/C for the compound listed here: O=C(c1cc(Cc2n[nH]c(=O)c3ccccc23)ccc1F)N1CCN(C(=O)C2CC2)CC1 + CN1CCN(c2cc(C(=O)Nc3cc4cc(-c5cnn(C)c5)ccc4cn3)ccn2)CC1
result: 105%

query: Answer with the recorded viability, T/C for the compound listed here: Nc1ccn(C2OC(CO)C(O)C2(F)F)c(=O)n1 (stereo not given) + CNC(=O)c1ccc(Nc2nc(OC3CCCC3)c3c(-c4ccc5nc(C)oc5c4)c[nH]c3n2)c(OC)c1
result: 57.8%

query: Answer with the recorded viability, T/C for the compound listed here: CC(CO)NC(=O)c1cc(-c2ccc(Cl)cc2)nn(-c2cnn(C)c2)c1=O (stereo not given) + CNC(=O)c1ccc(Nc2nc(OC3CCCC3)c3c(-c4ccc5nc(C)oc5c4)c[nH]c3n2)c(OC)c1
result: 84.7%
